- measured on: E. coli CsgA (Escherichia coli, UniProt P28307)
- Construct: made in house; host or cells: E. coli NEB 3016 slyD::kan, pET11d
- Sequence (P28307 23-151): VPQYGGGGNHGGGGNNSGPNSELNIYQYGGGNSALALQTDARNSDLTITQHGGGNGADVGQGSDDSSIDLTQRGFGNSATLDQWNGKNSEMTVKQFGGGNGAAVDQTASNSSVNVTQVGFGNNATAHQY
- method notes: In vitro ThioflavinT assay of CsgA aggregation (CsgA ThT Assay)
- Type: biochemical
- condition summary: read-out: CsgA ThT Assay (2 μM CsgA) % Control Bmax 25 μM, activity range, class symbol; CsgA 2 μM, white plates; compound 25 μM
Reported remaining activity at 25 µM is given for each of the following compounds.

Please review the entries below; each comes with its answer.
# input Return the recorded remaining activity at 25 µM value; entry: CCc1c(Cc2cccc3ccccc23)c(-c2cccc(C(F)(F)F)c2)c2n(c1=O)C(C(=O)O)CN2Cc1ccc(OC)cc1 (stereo not shown)
# output 31 to 60%

# input For the compound CCCN1CC(C(=O)O)n2c(cc(Cc3cccc4ccccc34)c(NC3CCCC3)c2=O)S1(=O)=O (stereo not shown) , give its measured remaining activity at 25 µM value.
# output > 60%

# input Determine its reported remaining activity at 25 µM: O=C(O)C1CN(Cc2ccc(-c3ccccc3)cc2)c2c(-c3cccc(C(F)(F)F)c3)c(Cc3cccc4ccccc34)c(Cl)c(=O)n21 (stereo not shown)
# output 31 to 60%

# input Report remaining activity at 25 µM, nothing else, for this compound: O=C(O)C1CN(CC2CCCC2)c2c(-c3cccc(C(F)(F)F)c3)c(Cc3cccc4ccccc34)c(Cl)c(=O)n21 (stereo not shown)
# output > 60%

# input Using known records, supply remaining activity at 25 µM for O=C(O)C1CN(Cc2ccccc2)c2c(-c3cccc(C(F)(F)F)c3)c(Cc3cccc4ccncc34)c(Cl)c(=O)n21 (stereo not shown)
# output > 60%

# input Provide remaining activity at 25 µM value for the following compound: NC(=O)c1c(Cc2cccc3ccccc23)c(-c2cccc(C(F)(F)F)c2)c2n(c1=O)C(C(=O)O)CN(CCCCO)S2(=O)=O (stereo not shown)
# output 31 to 60%

# input Quote remaining activity at 25 µM reported for O=C(O)C1CN(C2CCCCC2)S(=O)(=O)c2c(-c3cccc(C(F)(F)F)c3)c(Cc3cccc4ccccc34)c(NC3CCCC3)c(=O)n21 (stereo not shown) please.
# output 31 to 60%

# input State, in one line, measured remaining activity at 25 µM of O=C(O)[C@@H]1CN(Cc2ccccc2)c2c(-c3cccc(C(F)(F)F)c3)c(Cc3cccc4ccccc34)c(Cl)c(=O)n21 (single isomer, unassigned) [Compound 004a]
# output > 60%

# input Please look at this compound and report its remaining activity at 25 µM: CCCN1CC(C(=O)O)n2c(c(-c3cccc(C(F)(F)F)c3)c(Cc3cccc4ccccc34)c(C3CC3)c2=O)S1(=O)=O (stereo not shown)
# output > 60%

# input Return the recorded remaining activity at 25 µM value; entry: O=C(O)C1CN(Cc2ccccc2)c2c(-c3cccc(C(F)(F)F)c3)c(Cc3cccc4ccccc34)c(Cl)c(=O)n21 (stereo not shown)
# output 31 to 60%

***
# input Give remaining activity at 25 µM for O=C(O)C1CN(Cc2ccccc2)c2c(-c3cccc(Br)c3)c(Cc3cccc4ccccc34)c(Cl)c(=O)n21 (stereo not shown)
# output > 60%

# input // fetch remaining activity at 25 µM given entry O=C(O)C1CN(Cc2ccccc2)c2c(-c3cccc(C(F)(F)F)c3)c(Cc3ccnc4ccccc34)c(Cl)c(=O)n21 (stereo not shown)
# output > 60%

# input Using the record for O=C(O)C1CNc2c(-c3cccc(C(F)(F)F)c3)c(Cc3cccc4ccccc34)c(Br)c(=O)n21 (stereo not shown) , state its measured remaining activity at 25 µM.
# output > 60%
